From: ChEMBL document CHEMBL5331145

# IC50 annotations
# TEST_TARGET: Voltage-gated inwardly rectifying potassium channel KCNH2 (Homo sapiens, UniProt Q12809)
# Sequence (Q12809 whole entry): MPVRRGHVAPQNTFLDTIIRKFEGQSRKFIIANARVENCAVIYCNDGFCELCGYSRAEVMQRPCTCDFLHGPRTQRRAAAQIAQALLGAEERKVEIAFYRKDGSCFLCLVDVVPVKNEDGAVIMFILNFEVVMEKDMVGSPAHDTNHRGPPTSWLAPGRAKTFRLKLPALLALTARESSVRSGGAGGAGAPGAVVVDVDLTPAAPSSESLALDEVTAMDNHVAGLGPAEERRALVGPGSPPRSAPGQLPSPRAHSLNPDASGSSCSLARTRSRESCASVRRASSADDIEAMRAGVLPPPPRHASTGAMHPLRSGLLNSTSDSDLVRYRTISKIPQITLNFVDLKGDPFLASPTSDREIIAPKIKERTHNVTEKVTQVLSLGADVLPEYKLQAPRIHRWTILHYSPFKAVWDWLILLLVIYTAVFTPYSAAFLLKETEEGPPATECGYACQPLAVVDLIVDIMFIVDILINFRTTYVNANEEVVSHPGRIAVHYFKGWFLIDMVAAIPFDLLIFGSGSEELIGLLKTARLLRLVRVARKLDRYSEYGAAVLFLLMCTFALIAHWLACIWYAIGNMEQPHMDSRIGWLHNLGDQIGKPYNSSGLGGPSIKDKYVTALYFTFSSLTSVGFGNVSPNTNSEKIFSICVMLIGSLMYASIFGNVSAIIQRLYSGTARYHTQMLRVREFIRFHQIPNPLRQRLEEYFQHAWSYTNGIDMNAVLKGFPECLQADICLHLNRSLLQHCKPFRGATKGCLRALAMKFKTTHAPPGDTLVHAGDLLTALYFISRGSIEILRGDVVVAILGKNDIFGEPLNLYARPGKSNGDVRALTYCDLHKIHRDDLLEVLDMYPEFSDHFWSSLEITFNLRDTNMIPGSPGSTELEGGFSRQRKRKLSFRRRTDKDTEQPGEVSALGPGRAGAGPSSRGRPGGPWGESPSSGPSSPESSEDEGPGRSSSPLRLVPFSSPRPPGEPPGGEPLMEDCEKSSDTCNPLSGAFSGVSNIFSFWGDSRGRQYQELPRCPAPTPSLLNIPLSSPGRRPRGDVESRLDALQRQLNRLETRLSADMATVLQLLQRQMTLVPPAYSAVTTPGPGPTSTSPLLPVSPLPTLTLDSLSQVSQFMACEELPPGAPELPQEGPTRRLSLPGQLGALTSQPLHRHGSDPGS
# TEST_NAME: Inhibition of human ERG by patch clamp assay
State just the number; it will be interpreted in µM.

Answered cases to consult:
1) CCc1cn(C2=CCC3C4CC=C5C[C@@H](NC(=O)c6ccnnc6)CC[C@]5(C)C4CC[C@]23C)cn1 (stereo partly specified) ... 6.58
2) C[C@]12CC[C@H](NC(=O)c3ccnnc3)CC1=CCC1C2CC[C@]2(C)C(n3cnc(C#N)c3)=CCC12 (stereo partly specified) ... 2.87
3) CC(C)c1cn(C2=CCC3C4CC=C5C[C@@H](NC(=O)c6ccncc6)CC[C@]5(C)C4CC[C@]23C)cn1 (stereo partly specified) ... 15
4) Cc1cn(C2=CCC3C4CC=C5C[C@@H](NC(=O)c6ccncc6)CC[C@]5(C)C4CC[C@]23C)cn1 (stereo partly specified) ... 6.47
5) COc1cn(C2=CCC3C4CC=C5C[C@@H](NC(=O)c6ccnnc6)CC[C@]5(C)C4CC[C@]23C)cn1 (stereo partly specified) ... 856

In: Fill in the blank: the reported IC50 of CCc1cn(C2=CCC3C4CC=C5C[C@@H](NC(=O)c6ccncc6)CC[C@]5(C)C4CC[C@]23C)cn1 (stereo partly specified) is ____.
Out: 3.58

In: GET /values?readout=IC50&item= COc1cn(C2=CCC3C4CC=C5C[C@@H](NC(=O)c6ccncc6)CC[C@]5(C)C4CC[C@]23C)cn1 (stereo partly specified)
Out: 4.07

In: Name the reported IC50 value associated with the molecule C[C@]12CC[C@H](NC(=O)c3ccnnc3)CC1=CCC1C2CC[C@]2(C)C(n3cnc(Cl)c3)=CCC12 (stereo partly specified)
Out: 24.6

----------
# TEST_TARGET: Glucocorticoid receptor (Homo sapiens)
# Sequence (P04150 whole entry): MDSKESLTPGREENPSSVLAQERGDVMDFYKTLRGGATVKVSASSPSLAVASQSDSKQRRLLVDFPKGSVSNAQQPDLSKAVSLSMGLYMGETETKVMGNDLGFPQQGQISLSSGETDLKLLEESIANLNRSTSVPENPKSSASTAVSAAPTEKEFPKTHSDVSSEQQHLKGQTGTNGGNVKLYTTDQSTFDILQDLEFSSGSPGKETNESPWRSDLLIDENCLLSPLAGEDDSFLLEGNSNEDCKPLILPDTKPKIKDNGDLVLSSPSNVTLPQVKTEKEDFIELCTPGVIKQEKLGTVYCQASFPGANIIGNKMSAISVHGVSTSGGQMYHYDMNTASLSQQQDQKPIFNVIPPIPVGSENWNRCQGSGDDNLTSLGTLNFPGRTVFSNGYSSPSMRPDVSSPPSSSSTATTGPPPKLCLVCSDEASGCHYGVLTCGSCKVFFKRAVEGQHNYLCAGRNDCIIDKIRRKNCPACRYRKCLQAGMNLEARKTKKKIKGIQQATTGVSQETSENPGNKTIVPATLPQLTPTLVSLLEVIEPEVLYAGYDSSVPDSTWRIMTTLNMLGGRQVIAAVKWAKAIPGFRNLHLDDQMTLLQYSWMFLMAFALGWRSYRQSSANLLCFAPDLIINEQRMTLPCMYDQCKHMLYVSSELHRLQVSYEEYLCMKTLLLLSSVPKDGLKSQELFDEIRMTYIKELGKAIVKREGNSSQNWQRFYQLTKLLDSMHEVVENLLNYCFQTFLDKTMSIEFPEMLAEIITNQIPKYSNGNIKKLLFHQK
OUTCOME_MEASURE: IC50

In: Requested read-out IC50, target or system Glucocorticoid receptor (Homo sapiens), entry Cc1cn(C2=CCC3C4CC=C5C[C@@H](NC(=O)c6ccc(F)cc6)CC[C@]5(C)C4CC[C@]23C)cn1 (stereo partly specified)
Out: > 30 µM

----------
# TEST_TARGET: Cytochrome P450 2C19 (Homo sapiens)
# Sequence (P33261 whole entry): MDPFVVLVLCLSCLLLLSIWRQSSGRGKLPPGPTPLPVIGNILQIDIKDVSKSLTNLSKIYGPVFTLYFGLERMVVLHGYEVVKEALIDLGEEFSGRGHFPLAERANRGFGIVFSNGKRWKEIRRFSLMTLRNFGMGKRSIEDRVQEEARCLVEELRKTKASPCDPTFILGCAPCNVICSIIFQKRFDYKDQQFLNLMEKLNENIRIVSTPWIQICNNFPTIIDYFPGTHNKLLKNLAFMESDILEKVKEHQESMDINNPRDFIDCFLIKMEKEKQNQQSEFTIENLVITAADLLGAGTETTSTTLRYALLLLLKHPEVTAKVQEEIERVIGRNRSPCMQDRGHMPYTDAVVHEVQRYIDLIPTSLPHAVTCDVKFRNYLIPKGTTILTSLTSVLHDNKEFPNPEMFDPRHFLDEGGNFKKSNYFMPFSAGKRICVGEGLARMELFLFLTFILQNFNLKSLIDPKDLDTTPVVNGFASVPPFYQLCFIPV
OUTCOME_MEASURE: pIC50
In simple prose, pIC50 is minus the logarithm base ten of a concentration in moles per litre.

In: Find pIC50 (Cytochrome P450 2C19 (Homo sapiens)) for the entry Cc1cn(C2=CCC3C4CC=C5C[C@@H](NC(=O)c6ccc(F)cc6)CC[C@]5(C)C4CC[C@]23C)cn1 (stereo partly specified)
Out: 5.39

----------
# pIC50 annotations
# Tested on: LNCaP
# TEST_NAME: Antiproliferative activity against human LNCaP cells incubated for 6 days by CellTiter-Glo assay
# Format: functional, cell-based
Scale explanation: pIC50 corresponds to minus log10 of a concentration expressed in moles per litre.

1) Cc1cn(C2=CCC3C4CC=C5C[C@@H](NC(=O)c6ccncc6F)CC[C@]5(C)C4CC[C@]23C)cn1 (some centres undefined) ... 6.12
2) Cc1cn(C2=CCC3C4CC=C5C[C@@H](NC(=O)n6ccnc6)CC[C@]5(C)C4CC[C@]23C)cn1 (some centres undefined) ... 5.18
3) Cc1cn(C2=CCC3C4CC=C5C[C@@H](NS(=O)(=O)c6ccc(C#N)cc6)CC[C@]5(C)C4CC[C@]23C)cn1 (some centres undefined) ... 5.44

Turning now to a further record.
In: Quick check: pIC50 of Cc1cn(C2=CCC3C4CC=C5C[C@@H](NC(=O)c6ccc([N+](=O)[O-])cc6)CC[C@]5(C)C4CC[C@]23C)cn1 (some centres undefined) ?
Out: 6.23

----------
# TEST_TARGET: Androgen receptor (Homo sapiens) (UniProt P10275)
# TEST_NAME: Potency index, ratio of galeterone DC50 to test compound DC50 for induction of androgen receptor degradation in human LNCaP cells
# Type: cell-based
OUTCOME_MEASURE: Ratio

Recorded results for 4 compounds are shown here.
1) CC(C)c1cn(C2=CCC3C4CC=C5C[C@@H](NC(=O)c6ccncc6)CC[C@]5(C)C4CC[C@]23C)cn1 (stereo not given in full) ... 2.5
2) Cc1cn(C2=CCC3C4CC=C5C[C@@H](NC(=O)c6ccc([N+](=O)[O-])cc6)CC[C@]5(C)C4CC[C@]23C)cn1 (stereo not given in full) ... 2.5
3) Cc1cn(C2=CCC3C4CC=C5C[C@@H](NC(=O)c6ccncc6F)CC[C@]5(C)C4CC[C@]23C)cn1 (stereo not given in full) ... 2.5
4) COc1cn(C2=CCC3C4CC=C5C[C@@H](NC(=O)c6ccnnc6)CC[C@]5(C)C4CC[C@]23C)cn1 (stereo not given in full) ... 2.5

Next compound, please.
In: Record request: Ratio value, item Cc1cn(C2=CCC3C4CC=C5C[C@@H](NC(=O)c6ccc(F)cc6F)CC[C@]5(C)C4CC[C@]23C)cn1 (stereo not given in full)
Out: 8.6

----------
# TEST_TARGET: Androgen receptor (Homo sapiens, UniProt P10275)
# Sequence (P10275 whole entry): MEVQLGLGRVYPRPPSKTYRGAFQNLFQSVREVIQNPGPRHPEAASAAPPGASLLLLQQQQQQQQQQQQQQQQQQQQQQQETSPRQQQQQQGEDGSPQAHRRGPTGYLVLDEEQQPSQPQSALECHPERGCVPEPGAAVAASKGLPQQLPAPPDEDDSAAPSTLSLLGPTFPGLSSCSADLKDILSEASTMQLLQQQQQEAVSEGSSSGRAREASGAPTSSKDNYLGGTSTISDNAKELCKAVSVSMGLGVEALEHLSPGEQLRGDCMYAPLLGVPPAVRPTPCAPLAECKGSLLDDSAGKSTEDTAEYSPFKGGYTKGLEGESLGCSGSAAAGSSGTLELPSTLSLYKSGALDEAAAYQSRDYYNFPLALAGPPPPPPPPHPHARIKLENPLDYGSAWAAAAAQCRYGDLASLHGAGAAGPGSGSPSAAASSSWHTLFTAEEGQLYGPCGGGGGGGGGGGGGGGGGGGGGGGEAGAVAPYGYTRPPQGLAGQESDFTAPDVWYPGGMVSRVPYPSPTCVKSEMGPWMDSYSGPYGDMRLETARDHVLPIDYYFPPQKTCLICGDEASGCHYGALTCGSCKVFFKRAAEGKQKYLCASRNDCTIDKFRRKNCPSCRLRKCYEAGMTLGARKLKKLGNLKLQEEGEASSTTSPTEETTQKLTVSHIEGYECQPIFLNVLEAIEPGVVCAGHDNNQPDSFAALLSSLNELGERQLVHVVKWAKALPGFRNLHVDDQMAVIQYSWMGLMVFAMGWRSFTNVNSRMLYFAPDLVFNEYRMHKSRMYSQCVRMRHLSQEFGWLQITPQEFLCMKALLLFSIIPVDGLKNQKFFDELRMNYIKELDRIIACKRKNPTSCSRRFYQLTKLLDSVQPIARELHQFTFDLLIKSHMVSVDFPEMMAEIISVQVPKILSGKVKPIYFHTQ
# TEST_NAME: Induction of androgen receptor degradation in human LNCaP cells incubated for 24 hrs by ELISA
Friendly reminder: EC50 below 3000 nM is 1.0, at or above is 0.0.

Record excerpt, results attached:
1. Cc1cn(C2=CCC3C4CC=C5C[C@@H](NC(=O)c6ccncc6)CC[C@]5(C)C4CC[C@]23C)cn1 (stereo partly specified) ... 1.0
2. CCc1cn(C2=CCC3C4CC=C5C[C@@H](NC(=O)c6ccncc6)CC[C@]5(C)C4CC[C@]23C)cn1 (stereo partly specified) ... 0.0
3. Cc1cn(C2=CCC3C4CC=C5C[C@@H](NC(=O)c6ccc(F)cc6F)CC[C@]5(C)C4CC[C@]23C)cn1 (stereo partly specified) ... 1.0

In: Say whether its EC50 is strictly beneath 3000 nM. Entry: CC(C)c1cn(C2=CCC3C4CC=C5C[C@@H](NC(=O)c6ccncc6)CC[C@]5(C)C4CC[C@]23C)cn1 (stereo partly specified)
Out: 0.0

In: Decide: EC50 of Cc1cn(C2=CCC3C4CC=C5C[C@@H](NC(=O)c6ccc(C#N)cc6)CC[C@]5(C)C4CC[C@]23C)cn1 (stereo partly specified) strictly below 3000 nM?
Out: 1.0

----------
# TEST_NAME: Half life in dog at 10 mg/kg, po measured upto 24 hrs by LC-MS/MS analysis
# Assay type: ADME, organism-based, Canis lupus familiaris
# TEST_CONTEXT: in vivo
OUTCOME_MEASURE: half-life (min)
The reply should contain only the number, in min.

In: Given the entry Cc1cn(C2=CCC3C4CC=C5C[C@@H](NC(=O)c6ccc(F)cc6)CC[C@]5(C)C4CC[C@]23C)cn1.Cl (stereo partly specified) , report its measured half-life.
Out: 744

----------
# TEST_NAME: Volume of distribution at steady state in Sprague-Dawley rat at 5 mg/kg, iv measured upto 24 hrs by LC-MS/MS analysis
# Type: ADME, organism-based
# TEST_CONTEXT: in vivo, read-out: Vdss
OUTCOME_MEASURE: Vd (L/kg)
Report only the number, with the unit L/kg understood.

In: Query: Vd; subject: Cc1cn(C2=CCC3C4CC=C5C[C@@H](NC(=O)c6ccc(F)cc6)CC[C@]5(C)C4CC[C@]23C)cn1.Cl (stereo partly specified)
Out: 0.77
